Cited source for all entries: patent US9944602B2

system: wheat (Triticum aestivum); experiment: Test A postemergence wheat; assay type: in vivo; details: 500 g ai/ha, 0 to 100 scale, 0 is no effect, 100 is complete control
Excerpt: […]
Exercise: for every item that follows, state its recorded Plant response rating, Wheat.
Answers are plain numbers.

Molecule: O=C1NCC[C@@H](c2ccc(C(F)(F)F)cc2)[C@@H]1C(=O)Nc1cccc(F)c1F
Target: wheat (Triticum aestivum)
Numeric value: 20

Okay, here is my list. What is Plant response rating, Wheat for each of these?
1. O=C1NCCC(c2ccccc2)C1C(=O)Nc1ccccc1F (racemic)
2. O=C1NCCC(c2ccc(C(F)(F)F)cc2)C1C(=O)Nc1ccccc1C(F)(F)F (racemic)
3. O=C1NCCC(c2cccc(Cl)c2)C1C(=O)Nc1ccccc1F (racemic)
4. O=C1NCCC(c2cccc(OC(F)F)c2)C1C(=O)Nc1ccc(F)c(F)c1F (racemic)
5. O=C1NCCC(c2ccc(C(F)(F)F)cc2)C1C(=O)Nc1cccc(F)c1Cl (racemic)
6. O=C1NCCC(c2cccc(OC(F)(F)F)c2)C1C(=O)Nc1ccccc1C(F)(F)F (racemic)
7. O=C1NCCC(c2ccc(F)c(F)c2)C1C(=O)Nc1ccccc1F (racemic)
8. O=C1NCCC(c2cccc(C(F)(F)F)c2)C1C(=O)Nc1cccc(F)c1Cl (racemic)

[0, 0, 0, 0, 0, 0, 0, 30]
